# Tested on: TK-10 renal
# Assay protocol: NCI-60 one-dose screen, 48 h (100 = growth as untreated, 0 = no growth, -100 = all killed)
# Condition info: 10 µM unless noted
About 83,000 compounds went through this panel and 20% of them were active in at least one assay; those are over-represented in the sample as a whole.
Entries and their growth

{"Molecule": "O=C(O)c1cccc(S(=O)(=O)c2ccccc2)c1", "Unit descriptor": "%", "growth": 93.2}
{"Molecule": "C/C(=N/NC(=O)Cn1c2ccccc2c2ccncc21)c1cccs1", "Unit descriptor": "%", "growth": 127}
{"Molecule": "CCC(N)(C(=O)O)c1ccc(F)cc1 (stereo unspecified)", "Unit descriptor": "%", "growth": 95.5}
{"Molecule": "CN1CCN(CC(O)COc2c(Br)c(Br)c(Br)c3c2OC(C)(C)C3)CC1 (stereo unspecified)", "Unit descriptor": "%", "growth": 74.1}
{"Molecule": "C=CCOc1ccc(/C(Cl)=N/N=C(\\Cl)c2cc(OC)c(OC)c(OC)c2)cc1", "Unit descriptor": "%", "growth": 96.4}
{"Molecule": "Nc1nccc(=S)[nH]1", "Unit descriptor": "%", "growth": 95.6}
{"Molecule": "O=C(N/N=C1\\SCC(=O)N1c1ccccc1)c1cc(-c2cc3ccccc3o2)nn1-c1ccccc1", "Unit descriptor": "%", "growth": 112}
{"Molecule": "CC(C)CCC[C@@H](C)[C@H]1CC[C@H]2[C@@H]3CC=C4N(c5ccccc5)C(=O)CC[C@]4(C)[C@H]3CC[C@]12C", "Unit descriptor": "%", "growth": 97.4}
{"Molecule": "COc1ccc(NC(=O)Nc2ccc(-c3ccc(OC)c(OC)c3)nc2C)cc1", "Unit descriptor": "%", "growth": 60.4}
{"Molecule": "COc1cc(C(=O)NNC(=O)c2ccccc2C(=O)O)cc(OC)c1OC", "Unit descriptor": "%", "growth": 72}
{"Molecule": "CC(=O)O[C@@H]1[C@@H](OC(C)=O)[C@H](OC(C)=O)CO[C@H]1Nc1cccc2ccccc12", "Unit descriptor": "%", "growth": 115}

* * *

# Tested on: MDA-MB-231 breast
# Assay protocol: NCI-60 one-dose screen, 48 h (100 = growth as untreated, 0 = no growth, -100 = all killed)
# Condition info: 10 µM unless noted
# Protocol: Cells are grown in 96 well plates and exposed to the test compound for 48 hours. Compounds are tested at a single concentration, which is 10^-5 M for most compounds. The reported endpoint is percent growth (GI% or GIPRCNT), where numbers from 0 - 100% represent growth inhibition, and numbers from -100% - 0 represent cell death. For example, a value of 40 represents 60% growth inhibition. A value of 0 means no net growth occurred over the course of the experiment. […]
About 83,000 compounds went through this panel and 20% of them were active in at least one assay; those are over-represented in the sample as a whole.
Threshold check on growth: at or above 80% gives 1, strictly below gives 0.

{"Molecule": "COc1ccc(C(=O)NC(=O)Nc2ccc3c(c2)NC(=O)/C3=C\\c2[nH]c(C)c(CCC(=O)O)c2C)c(F)c1", "Class assignment": 0}
{"Molecule": "COC(OC)C1(c2ccccc2)NC(=O)NC1=O (centres undefined)", "Class assignment": 1}
{"Molecule": "NS(=O)(=O)c1ccc(-n2nc(-c3ccc(Cl)cc3)ccc2=O)cc1", "Class assignment": 1}
{"Molecule": "O=C(Nc1ccc(F)cc1)Nc1ccc(Br)c(C(F)(F)F)c1", "Class assignment": 0}
{"Molecule": "O=C(N/N=C/c1ccccc1O)c1ccccc1O", "Class assignment": 0}
{"Molecule": "CC(=O)O[C@@H]1[C@@H](OC(C)=O)[C@H](OC(C)=O)CO[C@H]1Nc1cccc2ccccc12", "Class assignment": 1}
{"Molecule": "CC1(C)CC(=O)C2=C(C1)OC1=C(C(=O)CC(C)(C)C1)C2c1ccc(OCc2cn(-c3ccc(F)cc3F)nn2)cc1", "Class assignment": 1}
{"Molecule": "COc1ccc(-c2nn(-c3ccc(NC(=O)Nc4ccc(Cl)c(Cl)c4)cc3)cc2-c2ccncc2)cc1Cl", "Class assignment": 0}
{"Molecule": "COc1ccccc1N1CCN(CC(O)COc2c(Br)c(Br)c(Br)c3c2OC(C)(C)C3)CC1 (centres undefined)", "Class assignment": 0}
{"Molecule": "COc1ccc2c(c1)nnn1c3ncccc3c(N=O)c21", "Class assignment": 0}
{"Molecule": "O=C(Cn1c2ccccc2c2ccncc21)N/N=C\\c1ccc2ccccc2c1", "Class assignment": 0}
{"Molecule": "Cc1ccc2nc(-c3ccc(-n4on4-c4ccc(/C=C/c5ccc(-n6on6-c6ccc(-c7nc8ccc(C)cc8s7)cc6)cc5S(=O)(=O)O)c(S(=O)(=O)O)c4)cc3)sc2c1", "Class assignment": 1}
{"Molecule": "CS(=O)(=O)OCC(COS(C)(=O)=O)C(c1ccccc1)c1ccccc1", "Class assignment": 1}
{"Molecule": "c1nc(SC2=NCCN2)c2[nH]cnc2n1", "Class assignment": 0}
{"Molecule": "COc1ccccc1S(=O)(=O)Nc1ccc2c3c(cc(-c4cnn(C5CC5)c4)nc13)C(=O)N2C", "Class assignment": 0}
{"Molecule": "O=C1OC(c2ccc(-c3ccccc3)cc2)=C/C1=C/C=C/c1ccccc1", "Class assignment": 1}
{"Molecule": "Clc1ccc(CN2COc3c(ccc4cccnc34)C2)cc1Cl", "Class assignment": 0}
{"Molecule": "O=C1c2ccccc2OC=C(c2ccccc2)N1CCCCN1CCCCC1", "Class assignment": 0}
{"Molecule": "Cl[C@@H]1CCO[C@H](c2cc3ccccc3c3ccccc23)C1", "Class assignment": 1}
{"Molecule": "COc1cc(NC(C)CCCN2C(=O)c3ccccc3C2=O)c2ncccc2c1OC (centres undefined)", "Class assignment": 1}
{"Molecule": "CC(CN(C)C)CN1c2ccccc2CCc2ccccc21 (centres undefined)", "Class assignment": 1}
{"Molecule": "CCCOC(=O)c1ccc([N+](=O)[O-])o1", "Class assignment": 1}
{"Molecule": "CC(C)CCC[C@@H](C)[C@H]1CC[C@H]2[C@@H]3CC=C4N(c5ccccc5)C(=O)CC[C@]4(C)[C@H]3CC[C@]12C", "Class assignment": 1}
{"Molecule": "O=C(Nc1cccc([N+](=O)[O-])c1)Nc1cccc([N+](=O)[O-])c1", "Class assignment": 1}
{"Molecule": "COc1cc(Nc2ncccc2C(=O)Nc2nc3ccc(F)cc3s2)cc(OC)c1OC", "Class assignment": 0}
{"Molecule": "CS(=O)(=O)Nc1cccc(-c2ccc3ncnc(Nc4ccc(F)c(Cl)c4)c3c2)c1", "Class assignment": 0}
{"Molecule": "CSc1ccc(C(=O)C[n+]2cccc(C)c2)cc1", "Class assignment": 1}
{"Molecule": "Nc1nccc2c1ccn2-c1cccc(NC(=O)c2ccc(N3CCOCC3)c(C(F)(F)F)c2)c1", "Class assignment": 0}
{"Molecule": "COc1ccc(Cl)cc1NC(=O)c1cc2c(n1C)-c1nc(NC(=O)C(C)(C)C)sc1CC2", "Class assignment": 1}
